Just for reference, the supplement of paper PMC9112550 is where these values come from.

Test system: Escherichia coli TOP10
protocol-summary: shrunken log2 fold change of peptide-encoding DNA abundance (4.5 h post-induction vs induction); higher = less antimicrobial activity (less host growth inhibition)
condition-set: time post-induction: 4.5 h; library: site-saturation at positions 5, 18, 19, 20
shrunken log2 fold change reference
Answer with a bare number; do not write a unit.

| entry-sequence | tested-target | assay-value |
| --- | --- | --- |
| RRIRHRPPRLPRPRPRPPVPPRP | Escherichia coli TOP10 | 0.441 |

QUERY: Value wanted: shrunken log2 fold change (Escherichia coli TOP10) of entry RRIRARPPRLPRPRPRPKKFPRP
RESULT: 0.138

QUERY: # query: shrunken log2 fold change | item RRIRRRPPRLPRPRPRPFKVPRP | system: Escherichia coli TOP10;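 also: peptides expressed intracellularly from a pBAD plasmid library in pooled LB shake-flask culture, induced with 0.3% L-arabinose, DNA abundance read by NGS, three biological replicates, DESeq2 with apeglm shrinkage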
RESULT: -0.0272
